biological target: Kv1.3 potassium channel (Homo sapiens); assay: Kv1.3 potassium channel blocker activity, automated whole-cell patch clamp (Patchliner); settings: CHO-K1 cells stably expressing Kv1.3; whole-cell current, Hill fit
Sequence (P22001 whole entry): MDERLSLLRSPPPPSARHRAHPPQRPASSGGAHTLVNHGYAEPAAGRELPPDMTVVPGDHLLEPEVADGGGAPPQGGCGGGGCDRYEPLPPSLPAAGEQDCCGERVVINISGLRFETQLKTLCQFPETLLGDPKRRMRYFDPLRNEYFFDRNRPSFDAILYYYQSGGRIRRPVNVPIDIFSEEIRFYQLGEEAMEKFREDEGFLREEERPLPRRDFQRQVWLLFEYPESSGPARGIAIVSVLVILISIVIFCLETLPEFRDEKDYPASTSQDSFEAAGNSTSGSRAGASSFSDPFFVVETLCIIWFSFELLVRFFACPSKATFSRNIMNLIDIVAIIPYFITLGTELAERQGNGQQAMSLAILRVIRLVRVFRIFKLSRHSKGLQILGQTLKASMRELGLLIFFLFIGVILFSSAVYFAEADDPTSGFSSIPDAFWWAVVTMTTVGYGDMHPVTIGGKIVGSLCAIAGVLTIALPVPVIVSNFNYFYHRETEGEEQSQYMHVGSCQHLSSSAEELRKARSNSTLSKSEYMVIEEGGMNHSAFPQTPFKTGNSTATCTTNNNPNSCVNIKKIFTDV
pIC50: −log10 of the molar value.
Experimental readout: pIC50

>  <Compound>
CC[C@H]1NC(=O)[C@@H]2C[C@H](c3c(O)ccc(Cl)c3Cl)CCN2C1=O [Compound 51]

>  <pIC50>
> 4.52

$$$$
>  <Compound>
C[C@H]1NC(=O)[C@@H]2C[C@H](c3c(O)ccc(Cl)c3Cl)CCN2C1=O [Compound 58]

>  <pIC50>
> 6.00

$$$$
>  <Compound>
O=C1N[C@H](CCO)C(=O)N2CC[C@@H](c3c(O)ccc(Cl)c3Cl)C[C@@H]12 [Compound 70]

>  <pIC50>
> 6.00

$$$$

Now examine the next entry.
Challenge: Would you mind telling me what pIC50 value was observed for O=C1N[C@@H](CO)C(=O)N2CC[C@H](c3c(O)ccc(Cl)c3Cl)C[C@H]12 [Compound 46] ?
Response given: > 5.00

====

Below, each entry is listed alongside its reported pIC50.
target: Kv1.3 potassium channel (Homo sapiens); assay: Kv1.3 potassium channel blocker activity, automated whole-cell patch clamp (Patchliner); conditions: CHO-K1 cells stably expressing Kv1.3; whole-cell current, Hill fit
pIC50: −log10 of the molar value.

Worked examples, 3 compounds total:
>  <Compound>
O=C1[C@H]2C[C@@H](c3c(O)ccc(Cl)c3Cl)CCN2C(=O)CN1CCO

>  <Target or system>
Kv1.3 potassium channel (Homo sapiens)

>  <pIC50>
> 5.00

$$$$
>  <Compound>
CN1C(=O)[C@@H]2C[C@H](c3c(O)ccc(Cl)c3Cl)CCN2C(=O)[C@H]1CO

>  <Target or system>
Kv1.3 potassium channel (Homo sapiens)

>  <pIC50>
> 6.00

$$$$
>  <Compound>
O=C1N[C@H](CO)C(=O)N2CC[C@H](c3c(O)ccc(Cl)c3Cl)C[C@H]12

>  <Target or system>
Kv1.3 potassium channel (Homo sapiens)

>  <pIC50>
> 5.00

$$$$

Could you now consider this next compound?
Challenge: What pIC50 value was documented for this compound, O=C1NC(=O)N2CC[C@H](c3c(O)ccc(Cl)c3Cl)C[C@@H]12 (single isomer, unassigned; diastereoisomer 1) ?
Response given: > 6.00

====

molecular target: Kv1.3 potassium channel (Homo sapiens); test: Kv1.3 potassium channel blocker activity, automated whole-cell patch clamp (Patchliner); conditions: CHO-K1 cells stably expressing Kv1.3; whole-cell current, Hill fit
Experimental readout: IC50

Example entries and their recorded answers appear below.
>  <Compound>
O=C1[C@H]2C[C@H](c3c(O)ccc(Cl)c3Cl)CCN2C(=O)CN1CCO (relative stereo)

>  <Experimental readout>
IC50

>  <Result>
< 1000 nM

$$$$
>  <Compound>
CC(C)[C@@H](O)[C@@H]1NC(=O)[C@@H]2C[C@H](c3c(O)ccc(Cl)c3Cl)CCN2C1=O

>  <Experimental readout>
IC50

>  <Result>
< 1000 nM

$$$$
>  <Compound>
COC[C@H]1NC(=O)[C@@H]2C[C@H](c3c(O)ccc(Cl)c3Cl)CCN2C1=O (relative stereo)

>  <Experimental readout>
IC50

>  <Result>
< 1000 nM

$$$$
>  <Compound>
O=C1[C@@H]2C[C@H](c3cc(Cl)c(Cl)cc3O)CCN2C(=O)CN1C1CNC1

>  <Experimental readout>
IC50

>  <Result>
< 1000 nM

$$$$
>  <Compound>
O=C1[C@H]2C[C@@H](c3c(O)ccc(Cl)c3Cl)CCN2C(=O)CN1C1CC(O)C1 (single isomer, unassigned; isomer 3) [Compound 34]

>  <Experimental readout>
IC50

>  <Result>
< 10000 nM

$$$$
>  <Compound>
O=C1[C@H]2[C@@H](O)CCN2C(=O)[C@H]2C[C@@H](c3c(O)ccc(Cl)c3Cl)CCN12

>  <Experimental readout>
IC50

>  <Result>
< 10000 nM

$$$$

Consider now this further compound.
Challenge: // query IC50 value for entry O=C1[C@H]2C[C@@H](O)CN2C(=O)[C@H]2C[C@@H](c3c(O)ccc(Cl)c3Cl)CCN12
Response given: < 10000 nM
